- experiment: Paclitaxel analysis in rabbit lung implant study (blood, pleural fluid, lung tissue)
- Format: in vivo
- conditionInfo: blood and tissues outside the thorax; rabbit; day 14
metric: concentration at 14 days

[ask] Read the entry `CC(=O)O[C@H]1C(=O)[C@@]2(C)[C@H]([C@H](OC(=O)c3ccccc3)[C@]3(O)C[C@H](OC(=O)[C@H](O)[C@@H](NC(=O)c4ccccc4)c4ccccc4)C(C)=C1C3(C)C)[C@]1(OC(C)=O)CO[C@@H]1C[C@@H]2O` and write its reported concentration at 14 days.
[reply] < 0.5 ng/mL

meta.source: patent US10888530B2
